Molecular target: UniProt P21452
Sequence (P21452 whole entry): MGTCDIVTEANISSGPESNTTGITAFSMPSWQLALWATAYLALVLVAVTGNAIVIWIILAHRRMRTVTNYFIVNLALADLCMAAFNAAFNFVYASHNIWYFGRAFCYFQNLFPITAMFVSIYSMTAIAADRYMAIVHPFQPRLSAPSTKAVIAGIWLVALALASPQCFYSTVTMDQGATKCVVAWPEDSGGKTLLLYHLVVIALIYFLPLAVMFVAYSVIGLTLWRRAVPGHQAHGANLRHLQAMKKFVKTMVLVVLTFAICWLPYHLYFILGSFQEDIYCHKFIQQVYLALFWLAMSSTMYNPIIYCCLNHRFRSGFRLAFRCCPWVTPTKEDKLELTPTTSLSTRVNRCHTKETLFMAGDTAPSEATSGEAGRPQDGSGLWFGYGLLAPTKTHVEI
pKi: −log10 of the molar value.
Assay Readout: pKi

P. CC(C)(C)c1ccc(Oc2ccc(NC(=O)N[C@H](Cc3ccccc3)C(=O)NCCCN3CCOCC3)cc2)cc1
Q. O=C(Nc1ccc(Oc2ccccc2)cc1)N[C@@H](Cc1ccccc1)C(=O)NCCCN1CCOCC1
R. CCc1ccc(Oc2ccc(NC(=O)N[C@H](Cc3ccccc3)C(=O)NCCCN3CCOCC3)cc2)cc1
List by increasing pKi. Note for the reader: the ranking is given by listing the labels in the order requested. Q, R, P

P. O=C(Nc1ccc(Oc2ccc(F)cc2)cc1)N[C@@H](Cc1ccccc1)C(=O)NCCCN1CCOCC1
Q. O=C(Nc1ccccc1Oc1ccccc1)N[C@@H](Cc1ccccc1)C(=O)NCCCN1CCOCC1
R. O=C(Nc1ccc(OCc2ccccc2)cc1)N[C@@H](Cc1ccccc1)C(=O)NCCCN1CCOCC1 (stereo in doubt; 32a (L))
S. CC(C)(Oc1ccc(Cl)cc1)C(=O)N[C@H](Cc1ccccc1)C(=O)NCCCN1CCOCC1
T. O=C(Nc1cccc(Oc2ccccc2)c1)N[C@H](Cc1ccccc1)C(=O)NCCCN1CCOCC1
Please list these compounds in decreasing order of pKi. Note for the reader: the ranking is given by listing the labels in the order requested. P, T, S, R, Q
(P: 7.80, T: 6.52, S: 6.22, R: 5.92, Q: 5.30)
